Tested on: SK-MEL-28 melanoma
Assay: NCI-60 one-dose screen, 48 h (100 = growth as untreated, 0 = no growth, -100 = all killed)
Conditions: 10 µM
The panel holds about 83,000 compounds, 20% with a hit somewhere; the sample as a whole holds those more often.
measured_parameter: growth (%)
One number for each entry, in %.

Here's what some known entries look like.
Param item: `COc1ccc(C(=O)NC(=S)N2CCN(c3ncnc4c3cnn4-c3ccccc3)CC2)cc1` ; param system: SK-MEL-28 melanoma; output growth: 50

Param item: `Cc1ccc2nc(COc3ccc(C(=O)NNC(=S)NCCc4ccccc4)cc3)[nH]c2c1` ; param system: SK-MEL-28 melanoma; output growth: 92.9

Param item: `CN(C)CCNC(=O)OCCCCOc1cc(O)c2c(=O)cc(-c3ccccc3)oc2c1` ; param system: SK-MEL-28 melanoma; output growth: -91.5

Param item: `Cn1c(O)c(N=Nc2nc(-c3cc4ccccc4oc3=O)cs2)c2cc(Br)ccc21` ; param system: SK-MEL-28 melanoma; output growth: 99.8

Param item: C/C(=C\CSc1ccccc1C(=O)O)CCCC(C)CCCC(C)CCCC(C)C (stereo not drawn) ; param system: SK-MEL-28 melanoma; output growth: 71.5

Below are some compounds; for each one, tell me its growth.
1. COc1ccc2ncc(C#Cc3cncc(C(=O)Nc4ccc(CN5CCN(C)CC5)c(C(F)(F)F)c4)c3)n2n1
2. COc1ccc(-c2nc(S(=O)(=O)c3ccc(C)cc3)c(S(C)(=O)=O)o2)cc1
3. O=C(CSc1nnc(-c2ccc3nc(-c4ccccc4)[nH]c3c2)o1)Nc1ccc(Cl)cc1
4. Cc1ccc(NC(=O)c2ccc(-n3c(=O)[nH]c4ccccc4c3=O)cc2)cc1
5. COc1cccc2nc(Nc3cccc(NC(=O)c4ccc(CN5CCCN(C)CC5)c(C(F)(F)F)c4)c3)ccc12
6. O=c1[nH][nH]c(Nc2ccccc2)c1N=Nc1ccc(F)cc1
7. CCOP(=O)(OCC)O[C@H]1CC[C@]2(C)[C@H]3CC[C@@H]4[C@@H]([C@](C)(O)CCC=C(C)C)CC[C@@]4(C)[C@]3(C)CC[C@H]2C1(C)C

# output
[-91.8, -98.2, 41.8, 102, -100, 108, 48.8]

Below are some compounds; for each one, tell me its growth.
1. Cc1cccc(NC(=O)CSc2nc3ccc(F)cc3c(=O)n2-c2ccc(Cl)cc2)c1C
2. CCN1CCN(c2ccc(NC(=O)Nc3ccc(-c4cc(C(=O)NC)c5ncccc5n4)cc3)cc2C(F)(F)F)CC1
3. O=C(CS(=O)(=O)c1oc(-c2ccc(Cl)cc2)nc1S(=O)(=O)c1ccccc1)N1CCCC1
4. COc1cnc2c(c1)C(=O)c1c-2n(CCCNC(C)C)c(=O)c2cc(OC)c(OC)cc12

# output
1: 74.3; 2: -100; 3: -100; 4: 94

###

System: LOX IMVI melanoma
Experiment: NCI-60 one-dose screen, 48 h
Conditions: 10 µM
Method: Growth inhibition of the LOX IMVI human tumor cell line is measured as a screen for anti-cancer activity. Cells are grown in 96 well plates and exposed to the test compound for 48 hours. Compounds are tested at a single concentration, which is 10^-5 M for most compounds. The reported endpoint is percent growth (GI% or GIPRCNT), where numbers from 0 - 100% represent growth inhibition, and numbers from -100% - 0 represent cell death. For example, a value of 40 represents 60% growth inhibition. […]
This is part of a sample that, as a whole, favours compounds with a hit. Of some 83,000 tested, about 20% had one in any assay. Activity calls are given as the source filed them. The calls were made as follows: active = growth percent below 10; inactive = the rest.
Can you answer with just one of these options? yes (1) (active), no (0) (inactive)

Some solved cases for reference:
# input GET /call?item= `COc1ccc(CN2[C@@H](C(=O)NCc3ccc(C(=O)NO)cc3)Cc3c([nH]c4ccccc34)[C@@H]2C2CC2)cc1` returns the recorded outcome of this test.
# output no (0)

# input GET /call?item= `O=C(/C=C/Nc1ccc(F)cc1F)c1ccc2c(c1)Nc1ccccc1S2` returns the recorded outcome of this test.
# output no (0)

# input GET /call?item= `O=C(CNc1nc(-c2ccccc2)cs1)Nc1ccc(Cl)cc1` returns the recorded outcome of this test.
# output yes (1)

# input GET /call?item= `O=C1NC(=NC23CC4CC(CC(C4)C2)C3)N/C1=C\c1ccc2ncsc2c1` returns the recorded outcome of this test.
# output yes (1)

# input GET /call?item= `COc1ccc(/C(CSc2nnc(-c3c[nH]c4ccccc34)n2-c2ccccc2)=N/O)cc1` returns the recorded outcome of this test.
# output yes (1)

Further cases:
# input GET /call?item= `O=C(CNc1nc(-c2ccccc2)cs1)Nc1ccc(Cl)cc1[N+](=O)[O-]` returns the recorded outcome of this test.
# output yes (1)

# input GET /call?item= `O=c1[nH][nH]c(Nc2ccccc2)c1N=Nc1ccc(F)cc1` returns the recorded outcome of this test.
# output no (0)
